# System: HCV genotype 1b (Con1) replicon in HUH-7 cells
# assayText: HCV replicon luciferase reporter assay, genotype 1b
# Format: cell-based
# experimentalSetup: Hepatitis C virus, Huh-7, 72 h, HCV genotype 1b replicon luciferase, 3 days incubation, read-out: LE_1b (EC50, range)
pEC50: −log10 of the molar value.
Could you please report measured pEC50 for the items listed next?

pEC50 lookup needed for CC(C)Oc1ccc2c(O[C@@H]3C[C@H]4C(=O)N[C@]5(C(=O)NS(=O)(=O)C6(C)CC6)C[C@H]5/C=C\CC[C@H](C)C[C@@H](C)[C@H](NC(=O)OC(C)(C)C)C(=O)N4C3)nccc2c1 [Compound 5156] , thanks. 6.99 to 8.32

pEC50 lookup needed for CCOc1ccc2c(O[C@@H]3C[C@H]4C(=O)N[C@]5(C(=O)NS(=O)(=O)C6(C)CC6)C[C@H]5/C=C\CC[C@@H](C)C[C@@H](CC)[C@H](NC(=O)OC(C)(C)C(C)(F)F)C(=O)N4C3)nccc2c1 [Compound 5371] , thanks. 9.00 to 9.29

pEC50 lookup needed for CCC(CC)(OC(=O)N[C@@H]1C(=O)N2C[C@H](Oc3nccc4c5c(ccc34)OCCO5)C[C@H]2C(=O)N[C@]2(C(=O)NS(=O)(=O)C3CC3)C[C@H]2/C=C\CC[C@@H](C)C[C@H]1C)C(F)(F)F [Compound 5262] , thanks. > 8.26

pEC50 lookup needed for COc1cnc(O[C@@H]2C[C@H]3C(=O)N[C@]4(C(=O)NS(=O)(=O)C5(CF)CC5)C[C@H]4CCCC[C@H](C)C[C@@H](C)[C@H](NC(=O)OC(C)(C)C(F)(F)F)C(=O)N3C2)c2ccccc12 [Compound 5116] , thanks. 6.99 to 8.32
